test-name: Plasma pharmacokinetics, non-compartmental analysis
Assay type: in vivo, human
protocol-conditions: human, plasma, oral, 90 mg, AUC0–12, Gmean (range), single dose; 90 mg tablet (n=11)
parameter: AUC(0-t) (ng·h/mL)
Reply with just the number (in ng·h/mL).

Respond only with AUC(0-t) recorded for `COc1ccc(-c2ccc3c(N4CCOC[C@@H]4C)nc(N4CCOC[C@@H]4C)nc3n2)cc1CO`
130

* * *

test-name: Plasma pharmacokinetics, non-compartmental analysis
Assay type: in vivo, human
protocol-conditions: human, plasma, oral, 120 mg, Vss/F, Amean (range), single dose; 120 mg tablet (n=10)
parameter: Vd/F (L)
Reply with just the number (in L).

Respond only with Vd/F recorded for `COc1ccc(-c2ccc3c(N4CCOC[C@@H]4C)nc(N4CCOC[C@@H]4C)nc3n2)cc1CO`
1370

src = paper PMC3461162
